Test system: myeloid leukemia patient primary cells Pat.13
Test: cell viability (% survival relative to DMSO control); higher = less cytotoxic
Details: 1000 nM; 72 h
Measured Quantity: cell viability (%)
Your answer should be a plain number; it is taken to be in %.

{"Compound": "Nc1nc(O)c2c(CCc3ccc(C(=O)N[C@@H](CCC(=O)O)C(=O)O)cc3)c[nH]c2n1 [Pemetrexed]", "cell viability (%)": 82.7}
{"Compound": "CN(C)CCNC(=O)c1cccn2c(=O)c3cc4ccccc4cc3nc12 [Bmh-21]", "cell viability (%)": 19.7}
{"Compound": "c1ccc2c(c1)SCc1c-2[nH]c2ccccc12", "cell viability (%)": 61.1}

# evaluate next
// query Notebook entry, myeloid leukemia patient primary cells Pat.13 assay: cell viability of "O=C(c1c2ccccc2cc2ccccc12)N1CCC(N2CCC[C@@H](C(=O)N3CCOCC3)C2)CC1" = ?
// result 62.8

###

Tested on: ML-2
Assay: cell viability (% survival relative to DMSO control, bortezomib = 0%); higher = less cytotoxic
Conditions: 10 nM; 72 h
Each entry below carries its recorded cell viability.
Your answer should be a plain number; it is taken to be in %.

{"Compound": "NCc1ccc(S(N)(=O)=O)cc1 [4-Homosulfanilamide]", "System": "ML-2", "Measured Quantity": "cell viability", "Measurement": 92.3}

# evaluate next
// query Consider the compound CCCC(CCC)C(=O)O [Valproic acid] and give its measured cell viability.
// result 95.6

###

System: K-562
Assay: cell viability (% survival relative to DMSO control, bortezomib = 0%); higher = less cytotoxic
Conditions: 10 nM; 72 h
Measured Quantity: cell viability (%)
Your answer should be a plain number; it is taken to be in %.

{"Compound": "CC(=O)N1CCN(c2ccc(OC[C@@H]3CO[C@@](Cn4ccnc4)(c4ccc(Cl)cc4Cl)O3)cc2)CC1 (racemic)", "cell viability, %": 95.2}
{"Compound": "CC(C)(CS(=O)(=O)[O-])NC(=O)CC[N+](C)(C)CCO", "cell viability, %": 88.5}
{"Compound": "OC[C@H]1N[C@@H](c2c[nH]c3c(O)ncnc23)[C@H](O)[C@@H]1O", "cell viability, %": 94.4}
{"Compound": "Cc1[nH]n(-c2ccccc2)c(=O)c1C1(C(F)(F)F)C(=O)N(c2ccccc2)C2=C1C(=O)CC(C)(C)C2 (stereo not given)", "cell viability, %": 100}

// query Notebook entry, K-562 assay: cell viability of OC[C@H]1OC(O)C[C@@H](O)[C@@H]1O (stereo not given in full) = ?
// result 117

// query Notebook entry, K-562 assay: cell viability of "O=C(Oc1cccc(F)c1OC(=O)c1cccc(O)c1)c1cccc(O)c1" = ?
// result 101

// query Notebook entry, K-562 assay: cell viability of "CCCCC/C=C\C/C=C\C/C=C\C/C=C\CCCC(=O)C(F)(F)F" = ?
// result 96.1

// query Notebook entry, K-562 assay: cell viability of "OCCN1C[C@H](O)[C@@H](O)[C@H](O)[C@H]1CO" = ?
// result 98.5

// query Notebook entry, K-562 assay: cell viability of "OCC(CO)N[C@H]1C[C@](O)(CO)[C@@H](O)[C@H](O)[C@H]1O" = ?
// result 107

// query Notebook entry, K-562 assay: cell viability of "Oc1ncc(F)c(O)n1" = ?
// result 114

// query Notebook entry, K-562 assay: cell viability of "Cl.NC1=CCCN1Cc1nc(O)nc(O)c1Cl" = ?
// result 99.8

// query Notebook entry, K-562 assay: cell viability of CCCCCCCNC=O [N-Heptyl-Formamide] = ?
// result 108

// query Notebook entry, K-562 assay: cell viability of "N=C(N)c1ccc(N=NNc2ccc(C(=N)N)cc2)cc1" = ?
// result 99.3

// query Notebook entry, K-562 assay: cell viability of "CC(C)(O)CNc1nc(Nc2ccnc(C(F)(F)F)c2)nc(-c2cccc(C(F)(F)F)n2)n1" = ?
// result 98.3

// query Notebook entry, K-562 assay: cell viability of "O=C1N[C@@H]2[C@@H](O)[C@@H](O)[C@H](O)[C@@H](CO)N2C1=O" = ?
// result 102

// query Notebook entry, K-562 assay: cell viability of "CCCCCCCCCCCCCCOc1ccc(C(=O)O)o1" = ?
// result 93.4

// query Notebook entry, K-562 assay: cell viability of "CN(C)CCNC(=O)c1cccn2c(=O)c3cc4ccccc4cc3nc12" = ?
// result 84.5

// query Notebook entry, K-562 assay: cell viability of "C=C1NC(=O)c2cc(CN(C)c3ccc(C(=O)N[C@@H](CCC(=O)O)C(=O)O)s3)ccc2N1" = ?
// result 121

// query Notebook entry, K-562 assay: cell viability of "CCCC(CCC)C(=O)O" = ?
// result 95.7

// query Notebook entry, K-562 assay: cell viability of "NCc1ccc(-c2cccnc2)s1" = ?
// result 122

###

Test system: myeloid leukemia patient primary cells Pat.2
Test: cell viability (% survival relative to DMSO control); higher = less cytotoxic
Conditions: 1000 nM; 72 h
Measured Quantity: cell viability (%)
Your answer should be a plain number; it is taken to be in %.

Below are worked cases with known answers.
{"Chemical String": "C=C1NC(=O)c2cc(CN(C)c3ccc(C(=O)N[C@@H](CCC(=O)O)C(=O)O)s3)ccc2N1", "Unit Of Measurement": "%", "cell viability": 99.7}
{"Chemical String": "CC(C)c1onc(-c2c(Cl)cccc2Cl)c1COc1ccc(/C=C/c2cccc(C(=O)O)c2)c(Cl)c1", "Unit Of Measurement": "%", "cell viability": 96.8}

// query Consider the molecule "Clc1cc(Cl)c(OCC#CI)cc1Cl" and give its measured cell viability.
// result 65

// query Consider the molecule "O=C(Oc1cccc(F)c1OC(=O)c1cccc(O)c1)c1cccc(O)c1" and give its measured cell viability.
// result 93.6

###

Each entry below carries its recorded area under dose-response curve.
System: myeloid leukemia patient primary cells Pat.12
Experiment: area under dose-response curve (viability, 1 nM-10 uM) (fraction (0-1)); higher = more sensitive
Conditions: 72 h

{"Chemical String": "Oc1ncc(F)c(O)n1", "area under dose-response curve": "< 0.0301"}
{"Chemical String": "O=C(Oc1cccc(F)c1OC(=O)c1cccc(O)c1)c1cccc(O)c1", "area under dose-response curve": 0.0633}
{"Chemical String": "c1ccc2c(c1)SCc1c-2[nH]c2ccccc12", "area under dose-response curve": 0.165}

# evaluate next
// query Notebook entry, myeloid leukemia patient primary cells Pat.12 assay: area under dose-response curve of "Clc1cc(Cl)c(OCC#CI)cc1Cl" = ?
// result 0.204

###

Each entry below carries its recorded cell viability.
Tested on: HL-60
Test: cell viability (% survival relative to DMSO control); higher = less cytotoxic
Conditions: 1 µM; 72 h; co-treatment: GSK2194069 100 nM
Your answer should be a plain number; it is taken to be in %.

Below are worked cases with known answers.
{"Compound": "NCc1ccc(S(N)(=O)=O)cc1 [4-Homosulfanilamide]", "cell viability / %": 96.9}
{"Compound": "Cc1nc(-c2ccc(OCC(C)C)c(C#N)c2)sc1C(=O)O [Febuxostat]", "cell viability / %": 95.2}
{"Compound": "CCCCCCCCCCCCCCOc1ccc(C(=O)O)o1 [TOFA]", "cell viability / %": 95.9}
{"Compound": "Cl.OC[C@H]1NC[C@H](O)[C@@H](O)[C@H]1O [Migalastat]", "cell viability / %": 103}
{"Compound": "COc1ccc2c(c1)c(CC(=O)O)c(C)n2C(=O)c1ccc(Cl)cc1 [Indomethacine]", "cell viability / %": 99.8}
{"Compound": "Cc1cc(O)c2c(c1)C(=O)c1cc(O)cc(O)c1C2=O [Emodin]", "cell viability / %": 74.7}
{"Compound": "Fc1ccc(CNc2ncnc3ccc(F)cc23)cc1 [Spautin 1]", "cell viability / %": 89.5}
{"Compound": "OC[C@H]1OC(O)C[C@@H](O)[C@@H]1O (some centres undefined) [2-deoxyglucose]", "cell viability / %": 101}

# evaluate next
// query Consider the compound Cn1c2cc(S(C)=O)sc2c2cnn(Cc3cccc(N)c3)c(=O)c21 (centres undefined) [TEPP-46] and give its measured cell viability.
// result 104

###

Each entry below carries its recorded cell viability.
System: LAMA-84
Test: cell viability (% survival relative to DMSO control, bortezomib = 0%); higher = less cytotoxic
Conditions: 10 nM; 72 h
Where a name gives a salt, the structure may show the parent alone.
Your answer should be a plain number; it is taken to be in %.

Below are worked cases with known answers.
{"Compound": "C=C1C(=O)O[C@H](CCCCCCCC)[C@H]1C(=O)O", "System": "LAMA-84", "Unit Of Measurement": "%", "cell viability": 102}
{"Compound": "CC(C)(Cc1ccccc1)NCC(O)c1ccc(O)c(NS(C)(=O)=O)c1 (stereo not given) [Zinterol hydrochloride]", "System": "LAMA-84", "Unit Of Measurement": "%", "cell viability": 99.1}
{"Compound": "OCCN1C[C@H](O)[C@@H](O)[C@H](O)[C@H]1CO", "System": "LAMA-84", "Unit Of Measurement": "%", "cell viability": 97.8}

// query Notebook entry, LAMA-84 assay: cell viability of "CN(C)C(=N)NC(=N)N" = ?
// result 87.9

// query Notebook entry, LAMA-84 assay: cell viability of "N=C(N)c1ccc(N=NNc2ccc(C(=N)N)cc2)cc1" = ?
// result 103
